System: MRC5
assay-protocol: Cytotoxicity against human MRC5 cells assessed as mortality at 1 ug/ml relative to control
Assay type: cell-based
Threshold 20%. mortality below it: fulfilled. mortality at it or above: not fulfilled.

Find out if reported mortality for CC(=O)O[C@@]12CO[C@@H]1C[C@H](O)[C@@]1(C)C(=O)[C@H](O)C3=C(C)[C@@H](OC(=O)[C@H](O)[C@@H](NC(=O)OC(C)(C)C)c4ccccc4)C[C@@](O)([C@@H](OC(=O)c4ccccc4)[C@H]21)C3(C)C [DOCETAXEL ANHYDROUS] is less than 20%
fulfilled

In plain terms, does `C[C@H]1C(=O)CC[C@@H]2[C@]1(C)CC[C@H]1[C@@]2(C)C[C@H](O)[C@@]2(C)[C@@H]3CC(C)(C)CC[C@]3(C)[C@@H](O)C[C@]12C` come in under 20% for mortality?
fulfilled

Say whether its mortality is strictly beneath 20%. Entry: CC(=O)OC[C@]12[C@H](OC(C)=O)[C@H](OC(=O)c3ccccc3)[C@H]3OC(=O)C(C)(O)CCc4ccncc4C(=O)OC[C@@]4(C)O[C@@]1([C@H]3C)[C@@H](OC(C)=O)[C@@H]4[C@@H](OC(C)=O)[C@@H]2OC(C)=O (stereo partly specified)
fulfilled

Please indicate whether the reported mortality of CC(=O)OC[C@]12[C@H](OC(=O)c3ccccc3)[C@H](OC(C)=O)[C@H]3OC(=O)C(C)(O)CCc4ncccc4C(=O)OC[C@@]4(C)O[C@@]1([C@H]3C)[C@@H](OC(C)=O)[C@@H]4C(=O)[C@@H]2OC(C)=O (stereo partly specified) is strictly below 20%.
fulfilled

Quick check: does CC(=O)OC[C@]12[C@H](OC(=O)c3ccccc3)[C@H](OC(=O)c3ccccc3)[C@H]3OC(=O)C(C)(O)CCc4ncccc4C(=O)OC[C@@]4(C)O[C@@]1([C@H]3C)[C@@H](OC(C)=O)[C@@H]4C(=O)[C@@H]2OC(C)=O (stereo partly specified) have mortality under 20%?
fulfilled

Problem: For the compound CC(=O)OC[C@]12[C@H](OC(C)=O)[C@H](OC(C)=O)[C@H]3OC(=O)C(C)(O)CCc4ncccc4C(=O)OC[C@@]4(C)O[C@@]1([C@H]3C)[C@@H](OC(C)=O)[C@@H]4C(=O)[C@@H]2OC(C)=O (stereo partly specified) , is mortality under 20%?
not fulfilled

----------
Tested on: Aedes aegypti
assay-protocol: Larvicidal activity against Aedes aegypti Paea assessed as mortality after 24 hrs by tube assay
Type: functional
measurement-context: read-out: LD50 (the source's name)
reported-endpoint: LC50 (µM)
Answer with a number only, understood to be in µM.

# query: LC50 of entry CC(=O)OC[C@]12[C@H](OC(=O)c3ccccc3)[C@H](OC(C)=O)[C@H]3OC(=O)C(C)(O)CCc4ncccc4C(=O)OC[C@@]4(C)O[C@@]1([C@H]3C)[C@@H](OC(C)=O)[C@@H]4C(=O)[C@@H]2OC(C)=O (stereo not given in full)
9.4

Can you look up the measured LC50 of CC(=O)OC[C@]12[C@H](OC(=O)c3ccccc3)[C@H](OC(=O)c3ccccc3)[C@H]3OC(=O)C(C)(O)CCc4ncccc4C(=O)OC[C@@]4(C)O[C@@]1([C@H]3C)[C@@H](OC(C)=O)[C@@H]4C(=O)[C@@H]2OC(C)=O (stereo not given in full) for me?
2.7
